# experiment_notes: NCI Yeast Anticancer Drug Screen. Data for the rad14 strain (AID 159)
# assay_setup: S. cerevisiae rad14 strain growth inhibition; at 11.0 µM
About 79,000 compounds went through this panel and 15% of them were active in at least one assay; those are over-represented in the sample as a whole. Activity calls are given as the source filed them. Cut-off read from the data, not from the text of the source: active = growth inhibition above about 70%; inactive = the rest.
Hi there, use one of these labels in your reply, thanks! t = active, f = inactive

molecule	discrete_label
O/N=C/C1c2ccccc2-c2ccccc21	f
Cc1cc(O)c2c(c1)C(=O)C=C(Br)C2=O	t
CC(=O)c1cc2c(Cl)cc(Cl)cc2oc1=O	f
N#C/C(=C\c1ccccc1)c1ccccc1F	f
CC(C)c1cccc(O)c(=O)c1	f

# input Record lookup: outcome of this test for `COc1cc(N)ccc1Nc1c2ccccc2nc2ccccc12` ?
# output f

# input Record lookup: outcome of this test for `S=c1[nH]nc(-c2ccc(Cl)cc2)s1` ?
# output f

# input Record lookup: outcome of this test for `O=C(CNS(=O)(=O)Cc1ccccc1)NNc1ccccc1` ?
# output f

Ref: PubChem BioAssay (NCI)
